Test system: 60 different human tumor cell lines
Conditions: read-out: LC50; CAKI-1 (Renal Cancer), five dose
test_readout: CC50 (µM)
Express the result in µM but write the number alone.

Query: Can you share its CC50? I mean this compound: C[C@]12CCc3nc(N)sc3C1=CC[C@@H]1[C@@H]2CC[C@]2(C)C(=NNC(N)=O)CC[C@@H]12
Result: 7.49

* * *

Test system: 60 different human tumor cell lines
Settings: SK-OV-3 (Ovarian Cancer), five dose
Parameter TGI: see the listing below.

Some solved entries appear below for comparison.
C[C@]12CCc3nc(N)sc3C1=CC[C@@H]1[C@@H]2CC[C@]2(C)C(=NNC(N)=O)CC[C@@H]12 [IVb.1] ... 2.23E−6
C[C@]12CCc3sc(Nc4ccc(F)cc4F)nc3C1=CC[C@@H]1[C@@H]2CC[C@]2(C)C(=O)CC[C@@H]12 [IIa.10] ... >1.00E−4
C[C@]12CCc3sc(Nc4cccc(O)c4)nc3C1=CC[C@@H]1[C@@H]2CC[C@]2(C)C(=O)CC[C@@H]12 [IIa.17] ... >1.00E−4

Here is another molecule to look at.
Query: Can you share its TGI? I mean this molecule: C[C@]12CC[C@H]3[C@@H](CC=C4c5sc(-c6ccc(O)cc6)nc5CC[C@@]43C)[C@@H]1CC[C@@H]2O [III.5]
Result: >1.00E−4

* * *

Parameter GI50: see the listing below.
Tested on: 60 different human tumor cell lines
Assay: cells
Details: KM12
Express the result in µM but write the number alone.

Some solved entries appear below for comparison.
C[C@]12CC[C@H]3[C@@H](CC=C4c5sc(-c6ccc(O)cc6)nc5CC[C@@]43C)[C@@H]1CC[C@@H]2O ... 7.24
C[C@]12CCc3sc(Nc4ccc(OC(F)(F)F)cc4)nc3C1=CC[C@@H]1[C@@H]2CC[C@]2(C)C(=O)CC[C@@H]12 ... 3.56
C[C@]12CCc3sc(Nc4cccc(O)c4)nc3C1=CC[C@@H]1[C@@H]2CC[C@]2(C)C(=O)CC[C@@H]12 ... 8.27

Query: Can you share its GI50? I mean this compound: C[C@]12CCc3sc(NCCc4ccccc4)nc3C1=CC[C@@H]1[C@@H]2CC[C@]2(C)C(=O)CC[C@@H]12
Result: 3.6

Query: Can you share its GI50? I mean this compound: C[C@]12CC[C@H]3[C@@H](CC=C4c5sc(Nc6ccccc6)nc5CC[C@@]43C)[C@@H]1CC[C@@H]2O
Result: 1.68

* * *

Parameter IC50: see the listing below.
Tested on: HFF-1
Experiment: Cytotoxicity assay (resazurin)
Assay type: cell-based
Details: Homo sapiens; HFF-1 cells; read-out: HFF-1 (IC50)
Express the result in µM but write the number alone.

Some solved entries appear below for comparison.
C[C@]12CC[C@H]3[C@@H](CC=C4c5sc(Nc6ccc(F)cc6)nc5CC[C@@]43C)[C@@H]1CC[C@@H]2O ... 24
Cc1ccc(Nc2nc3c(s2)C2=CC[C@H]4[C@@H]5CC[C@H](O)[C@@]5(C)CC[C@@H]4[C@@]2(C)CC3)cc1 ... 13

Here is another compound to look at.
Query: // fetch HFF-1 IC50 for C[C@]12CC[C@H]3[C@@H](CC=C4c5sc(Nc6ccc(F)cc6F)nc5CC[C@@]43C)[C@@H]1CC[C@@H]2O
Result: 25
